Conditions: in acetone, 293.15 K
readout type: solubility (mole fraction)

* NC(=O)c1cnccn1 | 0.00424

====

Settings: in sec-butanol, 303.15 K
readout type: solubility (mole fraction)

• NC(=O)c1cnccn1 = 0.00252

====

Settings: in acetone, 283.15 K
readout type: solubility (mole fraction)

- NC(=O)c1cnccn1: 0.00304

====

Details: in acetone, 308.15 K
readout type: solubility (mole fraction)

* NC(=O)c1cnccn1 | 0.00674

====

Details: in methanol, 298.15 K
readout type: solubility (mole fraction)

- NC(=O)c1cnccn1: 0.0047

====

Settings: in ethyl acetate, 298.15 K
readout type: solubility (mole fraction)

• NC(=O)c1cnccn1 = 0.0035
